pIC50: −log10 of the molar value.
measurement-kind: pIC50

Query block: What reported pIC50 corresponds to CCCCCCCCCCCCC/C=C/[C@@H](O)[C@H](CO)NC(C)=O [N-AS] on CYP 2D6 (Homo sapiens, UniProt P10635)?
Result block: < 5.00

----------
- procedure-summary: single-dose plasma PK
- Format: in vivo, C57BL/6 mice
- conditions-used: C57BL/6, plasma, oral; p.o. 10 mg/kg vs i.v. 1 mg/kg; mouse; read-out: BA (Bioavailability)
measurement-kind: bioavailability (%)
Numbers only here, please. The scale is %.

Query block: Consider the molecule "CCCCCCCCCCCCC/C=C/[C@@H](O)[C@H](CO)NC(C)=O" and give its measured bioavailability.
Result block: 8.25
